Assay: A CellTox Green Cytotoxicity Assay to monitor cytotoxicity in HepG2 cells - 16 hour (AID 1224876); note: nearly all actives have a fitted effect of over 45% in size
Conditions: CellTox Green fluorescence; series mostly up to 76.8 µM
Records with an inconclusive call do not appear. Calls of active or inactive are those of the source. Calls come from the whole dose curve; as a rule, active = well fitted activation curve with a large enough effect in the repeat runs; inconclusive = weak or mixed curves; inactive = flat fitted curve, though single readings scatter.
Outcome field: choose from active, inactive

-- ask Please state the recorded outcome for this compound: CN(C)/N=N/c1nc[nH]c1C(N)=O
-- reply inactive

-- ask // return assay outcome for O=C1OC2(c3ccccc31)c1cc(I)c(O)c(I)c1Oc1c2cc(I)c(O)c1I
-- reply active

-- ask Recorded test outcome, item CNC[C@H](O)c1ccc(O)c(O)c1
-- reply inactive

-- ask In this assay, the call recorded for C=CCNCC=C was what?
-- reply inactive

-- ask Could you please tell me the result logged for c1ccc2ncccc2c1 in this assay?
-- reply inactive

Values were extracted from PubChem BioAssay (Tox21).
